Below, Ki values reported for UniProtKB Q04609 across several publications.
Number only, in nM; omit the unit.

COMPOUND	TARGET	ENDPOINT UNIT	Ki
CCC(CS)C(CCC(=O)O)C(=O)O (stereo not shown)	UniProtKB Q04609	nM	1550
CCCCC(S)CC(CCC(=O)O)C(=O)O (stereo not shown)	UniProtKB Q04609	nM	4750
O=C(O)c1ccc(C(=O)O)c(S(=O)(=O)c2cc(C(=O)O)ccc2C(=O)O)c1	UniProtKB Q04609	nM	1870
O=C(O)CCC(CP(=O)(O)Cc1ccccc1F)C(=O)O (stereo not shown)	UniProtKB Q04609	nM	145
O=C(O)CC[C@H](NC(=O)N[C@@H](Cc1ccc(NC(=O)CCC(CCC(=O)Nc2ccc(C[C@H](NC(=O)N[C@@H](CCC(=O)O)C(=O)O)C(=O)O)cc2)(CCC(=O)Nc2ccc(C[C@H](NC(=O)N[C@@H](CCC(=O)O)C(=O)O)C(=O)O)cc2)NC(=O)Cn2cc(CCCF)nn2)cc1)C(=O)O)C(=O)O	UniProtKB Q04609	nM	5
O=C(O)CC[C@H](NC(=O)N[C@@H](CCCCn1cc(CCCF)nn1)C(=O)O)C(=O)O	UniProtKB Q04609	nM	6.6

Exercise: Fill blank: measured Ki of the compound O=C(O)CC[C@H](NC(=O)NC(Cc1ccc(NC(=O)N2CCN(C(=O)c3cc(C(=O)N4CCN(C(=O)Nc5ccc(CC(NC(=O)N[C@@H](CCC(=O)O)C(=O)O)C(=O)O)cc5)CC4)cc(-n4cc(CCCF)nn4)c3)CC2)cc1)C(=O)O)C(=O)O (stereo in doubt) is ____.
Key: 6.6

Exercise: # Ki lookup, item O=C(O)CC[C@H](NC(=O)N[C@@H](Cc1ccc(NC(=O)Cn2cc(CCCF)nn2)cc1)C(=O)O)C(=O)O
Key: 31.3

Exercise: If you can, please state the reported Ki value of O=C(O)CC[C@H](NC(=O)N[C@@H](CCCCNC(=O)[C@H]1O[C@@H](CNC(=O)CCc2ccc(-n3cc(CCCF)nn3)cc2)[C@H](O)[C@@H](O)[C@H]1O)C(=O)O)C(=O)O .
Key: 69

====

Here we gather Ki data for Glutamate carboxypeptidase 2 (Homo sapiens, UniProt Q04609) reported by several publications.
# unit: nM | format: bare number

Below, 3 compounds whose answers are already recorded.
COMPOUND	VAL
O=C(O)c1ccc(S(=O)(=O)c2cc(C(=O)O)ccc2C(=O)O)cc1	2370
NCCOCCOCCOCCOCCn1cc(-c2ccc(C(=O)NCCCC[C@H](NC(=O)N[C@@H](CCC(=O)O)C(=O)O)C(=O)O)cc2)nn1	41
O=C(O)CCC(CP(=O)(O)CN1C(=O)c2ccccc2C1=O)C(=O)O (stereo not shown)	34.5

Now let's try a different one.
Exercise: # query: Ki | item O=C(O)CC[C@H](NC(=S)NC(CCCCNC(=O)OCc1ccccc1)C(=O)O)C(=O)O (stereo partly shown) | system: Glutamate carboxypeptidase 2 (Homo sapiens, UniProt Q04609)
Key: 59

====

Ok so here's the combined literature set: Ki for Glutamate carboxypeptidase 2 (Homo sapiens).

Solved cases below.
COMPOUND	TARGET	Ki
O=C(O)CC[C@H](NC(=O)N[C@@H](CCCCNc1nc(-c2ccc3c(c2)OCO3)cs1)C(=O)O)C(=O)O	Glutamate carboxypeptidase 2 (Homo sapiens)	< 0.3 nM
O=C(O)CNc1cc(C(=O)O)cc(C(=O)O)c1	Glutamate carboxypeptidase 2 (Homo sapiens)	100000 nM
O=C(O)CCC(CC(S)c1cccc2ccccc12)C(=O)O (centres unmarked)	Glutamate carboxypeptidase 2 (Homo sapiens)	10000 nM

Exercise: Ki lookup needed for O=C(O)CC[C@H](NC(=O)N[C@@H](CCCCNC(=O)c1ccnc(F)c1)C(=O)O)C(=O)O , thanks.
Key: 15.6 nM

Exercise: Field request: Ki | item: O=C(O)CCC(CP(=O)(O)c1ccccc1)C(=O)O (centres unmarked)
Key: 35.9 nM

====

Multiple publications report pKi for Glutamate carboxypeptidase 2 (Homo sapiens, UniProt Q04609); what follows is a combined list.
A value of pKi is the negative decimal logarithm of a concentration given in moles per litre.

COMPOUND	pKi
O=C(O)CCC(CP(=O)(O)CNS(=O)(=O)c1ccccc1)C(=O)O (centres unmarked)	7.05
O=C(O)CCC(CP(=O)(O)C(NCc1ccccc1)c1ccccc1)C(=O)O (centres unmarked)	6.50
O=C(O)CC[C@H](NC(=O)N[C@@H](Cc1ccc(NC(=O)COCCOCCOCCn2cc(CCCF)nn2)cc1)C(=O)O)C(=O)O	7.66

Exercise: # returns recorded pKi (system: Glutamate carboxypeptidase 2 (Homo sapiens, UniProt Q04609)) for CC(=O)NCP(=O)(O)CC(CCC(=O)O)C(=O)O (centres unmarked)
Key: 6.93

Exercise: Item O=C(O)CC[C@H](NC(=O)C[C@@H](NC(=O)CCNC(=O)c1ccc(-n2cc(CCCF)nn2)cc1)C(=O)O)C(=O)O with Glutamate carboxypeptidase 2 (Homo sapiens, UniProt Q04609) - pKi?
Key: 6.81

Exercise: Glutamate carboxypeptidase 2 (Homo sapiens, UniProt Q04609) / pKi / O=C(O)CCC(CP(=O)(O)Cc1ccc(OCc2ccccc2)cc1)C(=O)O (centres unmarked) : value?
Key: 6.75

Exercise: Please state recorded pKi (tested on Glutamate carboxypeptidase 2 (Homo sapiens, UniProt Q04609)) of O=C(O)CC[C@H](NC(=O)N[C@@H](CCCCNC(=O)c1cc(C(=O)N2CCN(C(=O)Nc3ccc(C[C@H](NC(=O)N[C@@H](CCC(=O)O)C(=O)O)C(=O)O)cc3)CC2)cc(-n2cc(CCCF)nn2)c1)C(=O)O)C(=O)O
Key: 7.90

====

Dear all, I have gathered published Ki values for Glutamate carboxypeptidase 2 (Homo sapiens, UniProt Q04609); the list follows.
Reply numerically in nM, unit not repeated.

Answered examples (2):
MOLECULE	ENDPOINT UNIT	Ki
O=C(O)CCC(CP(=O)(O)Cc1c(F)c(F)c(F)c(F)c1F)C(=O)O (stereo not shown)	nM	22.7
O=C(O)CC[C@H](NC(=O)N[C@@H](CC1CCN(C(=S)Nc2ccc(-n3cc(CCCF)nn3)cc2)CC1)C(=O)O)C(=O)O	nM	4.1

Next up:
Exercise: So what Ki did O=C(O)Cc1cc(C(=O)O)ccc1C(=O)O get with Glutamate carboxypeptidase 2 (Homo sapiens, UniProt Q04609)?
Key: 9000

====

// note: Ki values for Glutamate carboxypeptidase 2 (Homo sapiens) were reported in different studies

Here are 5 compounds together with their reported answers.
COMPOUND	MEASURED PROPERTY	VAL
CC(C)(C)OC(=O)N1CCC[C@H]1COP(=O)(O)CC(CCC(=O)O)C(=O)O (stereo partly shown)	Ki	> 300 nM
O=C(O)CCC(CP(=O)(O)Cc1ccccc1C(F)(F)F)C(=O)O (stereo not shown)	Ki	92 nM
O=C(O)CC[C@H](NC(=O)N[C@@H](CCCCNC(=O)c1cc(NC(=O)Cn2cc(CCCF)nn2)cc(C(=O)NCCCC[C@H](NC(=O)N[C@@H](CCC(=O)O)C(=O)O)C(=O)O)c1)C(=O)O)C(=O)O	Ki	0.9 nM
O=C(O)CC[C@H](NC(=O)N[C@@H](Cc1ccc(NC(=O)CCC(CCC(=O)Nc2ccc(C[C@H](NC(=O)N[C@@H](CCC(=O)O)C(=O)O)C(=O)O)cc2)NC(=O)c2ccc(-n3cc(CCCF)nn3)cc2)cc1)C(=O)O)C(=O)O	Ki	0.9 nM
O=C(O)CC[C@H](NC(=O)N[C@@H](Cc1ccc(NC(=O)Nc2ccc(C[C@H](NC(=O)N[C@@H](CCC(=O)O)C(=O)O)C(=O)O)cc2)cc1)C(=O)O)C(=O)O	Ki	1.1 nM

Exercise: // lookup Ki | system=Glutamate carboxypeptidase 2 (Homo sapiens) | key= O=C(O)CCC(CP(=O)(O)CCc1ccccc1)C(=O)O (stereo not shown)
Key: 148 nM

Exercise: Query Ki on Glutamate carboxypeptidase 2 (Homo sapiens) for O=C(O)CC[C@H](NC(=O)N[C@@H](CCCCNc1nc(-c2cccc(NC(=O)Cn3cc(CCCF)nn3)c2)cs1)C(=O)O)C(=O)O
Key: 0.38 nM

Exercise: Lab request: please report Ki under test system Glutamate carboxypeptidase 2 (Homo sapiens) for CC(CS)CC(CCC(=O)O)C(=O)O (mixture of isomers)
Key: 239 nM

Exercise: Missing value: Ki, Glutamate carboxypeptidase 2 (Homo sapiens), entry O=C(O)CC[C@@H](C(=O)O)N(O)C(=O)N[C@@H](CCCCNC(=O)c1ccc(F)cc1)C(=O)O . Fill in?
Key: > 531 nM

Exercise: Please tell me: Ki of O=C(O)CC[C@H](NC(=O)N[C@@H](CCCCNC(=O)CC[C@H](NC(=O)Cn1cc(CCCF)nn1)C(=O)NCCCC[C@H](NC(=O)N[C@@H](CCC(=O)O)C(=O)O)C(=O)O)C(=O)O)C(=O)O , system Glutamate carboxypeptidase 2 (Homo sapiens)?
Key: 1 nM

Exercise: Please tell me: Ki of O=C(O)CC[C@H](NC(=O)N[C@@H](CCCCNc1cc(NCCOCCn2cc(CCCF)nn2)ncn1)C(=O)O)C(=O)O , system Glutamate carboxypeptidase 2 (Homo sapiens)?
Key: 0.8 nM

Exercise: Form field - read-out: Ki; system: Glutamate carboxypeptidase 2 (Homo sapiens); submitted item: O=C(O)CCCC(CP(=O)(O)O)C(=O)O (stereo not shown)
Key: 185 nM

Exercise: Record lookup: for Glutamate carboxypeptidase 2 (Homo sapiens), what Ki belongs to CC(CP(=O)(O)CC(CCC(=O)O)C(=O)O)C(=O)O (stereo not shown) ?
Key: 2 nM

Exercise: # value lookup — system Glutamate carboxypeptidase 2 (Homo sapiens), readout Ki, item O=C(O)CCC(CP(=O)(O)CC(CCC(=O)OCc1ccccc1)C(=O)OCc1ccccc1)C(=O)O (stereo not shown)
Key: 12.7 nM

Exercise: Give Ki (Glutamate carboxypeptidase 2 (Homo sapiens)) of the following compound: O=C(O)CCC(CCSSCCC(CCC(=O)O)C(=O)O)C(=O)O (stereo not shown)
Key: 16500 nM

Exercise: Short answer please: Ki, Glutamate carboxypeptidase 2 (Homo sapiens), entry O=C(O)CC[C@H](NC(=O)N[C@@H](Cc1ccc(OCCn2cc(CCCF)nn2)cc1)C(=O)O)C(=O)O
Key: 66 nM

Exercise: Tell me reported Ki for CN(C(=O)N[C@@H](CCC(=O)O)C(=O)O)[C@@H](CCCCNC(=O)CCCc1ccc(-n2cc(CCCF)nn2)cc1)C(=O)O , tested with Glutamate carboxypeptidase 2 (Homo sapiens).
Key: 235 nM

Exercise: What value of Ki on Glutamate carboxypeptidase 2 (Homo sapiens) does CC(CP(=O)(O)CC(CCC(=O)O)C(=O)O)C(=O)OCc1ccccc1 (stereo not shown) have?
Key: 95 nM

Exercise: Form: Entry = O=C(O)CC[C@H](NC(=O)N(O)C(CCCCNC(=O)OCc1ccccc1)C(=O)O)C(=O)O (stereo partly shown) | System = Glutamate carboxypeptidase 2 (Homo sapiens) | Ki = ____
Key: 250 nM
